Reference source: PubChem BioAssay

- target-or-system: E3 ubiquitin-protein ligase XIAP (Homo sapiens)
- method-description: XIAP binders, primary screen, biophysical, small-molecule microarray, fluorescence 635 nm (AID 1181);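 note: score merges 667 nm emission and signal to noise over triplicate slides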
- condition-info: small-molecule microarray binding, higher = more signal
Please provide measured composite z-score for the entries that follow.

Lab request: please report composite z-score under test system E3 ubiquitin-protein ligase XIAP (Homo sapiens) for C=CCC(OC(C)=O)[C@@H]1[C@@H](N(Cc2cc3ccccc3o2)C(=O)Cc2ccc(F)cc2)c2cc(OCCCO)ccc2N1C(=O)c1ccc2ccccc2c1 (some centres undefined)
0.555

Field entry: O=C1O[C@H](c2ccccc2)[C@H](c2ccccc2)N2[C@H]1[C@@H](C(=O)Nc1nc3ccccc3s1)[C@]1(C(=O)Nc3ccc(C#CC4(O)CCCCCC4)cc31)[C@H]2c1ccccc1OCCO
0.25

Field entry: COc1cc2c(cc1OC)CN(C(=O)[C@@H]1[C@H]3C(=O)O[C@H](c4ccccc4)[C@H](c4ccccc4)N3[C@H](c3ccc(OCCO)cc3)[C@@]13C(=O)Nc1ccc(C#CC4(O)CCCCCC4)cc13)CC2
-0.0382

Field entry: CCOC(=O)c1ccc(NC(=O)O[C@H]2[C@H](OC(=O)Nc3ccc4c(c3)OCO4)[C@@H](OC(=O)Nc3ccc4c(c3)OCO4)[C@@H](OC)O[C@@H]2CO)cc1
0.519

Field entry: CN(C)C(=O)C1N=C(c2ccc(OCCCO)cc2)N(c2ccccc2)O1 (centres undefined)
-0.181

Field entry: CCOC(=O)C[C@H]1[C@H](OC(=O)Cc2ccc3c(c2)OCO3)[C@@H](NC(=O)Cc2ccc(OC)cc2)c2cc(OCCCO)ccc2N1C(=O)c1ccc2ccccc2n1
0.0526

Field entry: CC(CO)N1C(=O)[C@@H]2[C@H]3C(=O)OCC=C[C@H]3OC23C=CCN(Cc2ccccc2)C(=O)[C@@H]13 (some centres undefined)
0.184

Field entry: O=C(NCC(F)(F)F)[C@@H]1c2ccccc2C(=O)N(Cc2cc(F)cc(C(F)(F)F)c2)[C@H]1c1ccc(CO)cc1
-0.126

Field entry: CCOC(=O)C1=C[C@@H](c2ccccc2)N(S(=O)(=O)c2ccc(C)cc2)[C@H]1c1ccccc1Cl
-0.136

Field entry: O=C1C2C=CC(C(O)c3ccc(Br)cc3)N(Nc3ccccc3F)C2C(=O)N1c1ccccc1 (centres undefined)
0.0933

Field entry: C[N+](C)(C)CCCCCCNC(=O)[C@H]1C[C@H]2C(=O)NCC(=O)N2[C@H]1c1ccc(O)cc1
0.175

Field entry: CCCCC(=C=CC[C@@H](O)c1ccccc1OCCO)C[C@@H](O)COCc1ccccc1
0.0022

Field entry: COC(=O)[C@@]1(Cc2ccc(F)cc2)[C@H]2c3cc(C(=O)N(C)C)n(Cc4cc(F)cc5c4OCOC5)c3C[C@H]2CN1C(=O)c1ccccc1
0.476

Field entry: NC(N)=NCCCn1cc(CNC(=O)[C@@H](N)Cc2ccccc2)nn1
0.012

###

- method-description: small-molecule microarray binders of probe aWnt5a, primary screen, biochemical, biotinylated probe, 635/667 nm fluorescence (AID 1113);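 note: score merges 667 nm fluorescence intensity with signal-to-noise per printed feature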
- condition-info: higher = more signal
Please provide measured composite z-score for the entries that follow.
Answer with a bare number; do not write a unit.

For the molecule shown here, C=CC[C@]1(C(=O)O)COC(c2ccc(OCCCO)cc2)=N1 , give the reported composite z-score.
-0.0203

Field entry: COc1ccc(C#Cc2ccc3c(c2)[C@]2(C(=O)N3)[C@H](c3ccc(O)cc3)N3[C@H](c4ccccc4)[C@H](c4ccccc4)OC(=O)[C@H]3[C@@H]2C(=O)O)cc1
0.0293

Field entry: COCCOC(=O)N1C(=O)[C@@]2(c3cc(C#CC4=CCCCC4)ccc31)[C@H](c1ccccc1OCCO)N1[C@H](c3ccccc3)[C@H](c3ccccc3)OC(=O)[C@H]1[C@@H]2C(=O)Nc1nc2ccccc2s1
-0.0236

Field entry: COc1ccc([Si](C)(C)[C@H]2[C@H](CCn3cc([C@H](O)c4ccccc4)nn3)O[C@@]3(C(=O)N(Cc4ccc(N5C(=O)c6cccc7cccc5c67)cc4)c4ccccc43)[C@@H]2C)cc1
-0.131

Field entry: O=C1O[C@H](c2ccccc2)[C@H](c2ccccc2)N2[C@H]1[C@@H](C(=O)NC[C@H](O)c1ccccc1)[C@]1(C(=O)Nc3ccc(C#CCCO)cc31)[C@H]2c1ccc(OCCO)cc1
-0.0758

Field entry: COc1ccc(CN(C2=CC[C@@]3(C(N)=O)C(=O)C(Cl)=C(Cl)C(=O)[C@@]3(C#N)C2)S(=O)(=O)c2ccc(Br)cc2)cc1
-0.11

Field entry: COCCOC(=O)N1C(=O)[C@@]2(c3cc(C#CC4=CCCCC4)ccc31)[C@H](c1ccc(OCCO)cc1)N1[C@H](c3ccccc3)[C@H](c3ccccc3)OC(=O)[C@H]1[C@@H]2C(=O)NC[C@H](O)c1ccccc1
-0.0297

Field entry: CCOC(=O)C[C@H]1[C@H](OC(=O)c2cc3ccccc3oc2=O)[C@@H](NC(=O)c2ccc(-c3ccccc3)cc2)c2cc(OCCCO)ccc2N1C(=O)c1ccccc1
-0.0203

Field entry: O=C1O[C@@H](c2ccccc2)[C@@H](c2ccccc2)N2[C@@H](c3ccc(OCCO)cc3)[C@]3(C(=O)Nc4ccccc43)[C@@H](C(=O)O)[C@H]12
0.779

Field entry: CC(C)N1CC=CC23O[C@@H]4C=CCOC(=O)[C@@H]4[C@H]2C(=O)N(CCCO)[C@@H]3C1=O (some centres not stated)
-0.18

Field entry: CCOC(=O)C[C@H]1[C@H](OC(=O)c2ccccc2-c2ccccc2)[C@@H](NC(=O)C2CCCCC2)c2cc(OCCCO)ccc2N1C(=O)Cc1ccc(OC)cc1
-0.12

Field entry: C=C(COC)/C(=C/C[C@H](OC(=O)c1ccncc1)c1ccccc1OCCO)c1cnc2ccccc2c1
-0.0405

###

- target-or-system: Concanavalin-A (Canavalia ensiformis) (UniProt P02866)
- Sequence (P02866 whole entry, looked up): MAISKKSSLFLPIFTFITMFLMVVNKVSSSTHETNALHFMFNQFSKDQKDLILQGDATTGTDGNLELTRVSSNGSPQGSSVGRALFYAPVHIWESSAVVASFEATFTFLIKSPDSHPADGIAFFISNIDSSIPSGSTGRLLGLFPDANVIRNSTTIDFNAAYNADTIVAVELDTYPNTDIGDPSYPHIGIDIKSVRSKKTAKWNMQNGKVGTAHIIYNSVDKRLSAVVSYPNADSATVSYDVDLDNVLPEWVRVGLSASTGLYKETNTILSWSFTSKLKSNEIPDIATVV
- method-description: ConA small-molecule binders, primary screen, artefact control for SMM control protein annotation, biochemical, small-molecule microarray, Alexa647 label, 635 nm (AID 1127);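 note: z combines 667 nm emission intensity with signal-to-noise across three replicate slides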
- condition-info: ConA-A647 binding fluorescence, higher = more signal
readout: composite z-score
Answer with a bare number; do not write a unit.

For the molecule shown here, COC(=O)[C@@]1(Cc2ccc(OC)cc2)[C@H]2c3cc(C(=O)N(C)C)n(CCO)c3C[C@H]2CN1C(=O)c1ccccc1 , give the reported composite z-score.
0.001

Field entry: C=CCNC(=O)[C@H]1[C@@H]2C(=O)O[C@@H](c3ccccc3)[C@@H](c3ccccc3)N2[C@@H](c2ccc(O)cc2)[C@]12C(=O)Nc1ccc(C#CC3(O)CCCCCC3)cc12
0.556

Field entry: C=CCC(OC(C)=O)[C@@H]1[C@@H](N(Cc2cccc3ccccc23)C(=O)Cc2ccc(OC)cc2)c2cc(OCCCO)ccc2N1C(=O)c1ccc2ccccc2n1 (some centres undefined)
-0.212

Field entry: COC(=O)[C@@]1(Cc2ccccc2)[C@@H]2C(=CC(=O)[C@H]2CC(=O)C(=O)N(C)C)CN1C(=O)c1ccccc1
1.08

Field entry: CCCCC(=C=CC[C@@H](O)c1ccccc1OCCO)C[C@@H](O)COCc1ccccc1
-0.525

Field entry: C=C(C)C1CCC(C(O)C2C=CC3C(=O)N(C)C(=O)C3N2N2CCCCC2)CC1 (centres undefined)
1.12

Field entry: CCCCCCc1nc(C2CC2)cc2c1[Si](C(C)C)(C(C)C)OC2
-0.334

Field entry: COc1ccc([Si](C)(C)[C@H]2[C@H](CC(=O)N(CCO)Cc3ccccc3)O[C@@]3(C(=O)N(Cc4cccc(N5CCOC5=O)c4)c4ccccc43)[C@@H]2C)cc1
0.995

Field entry: COCCCNC(=O)[C@@]1(Cc2ccccc2N=[N+]=[N-])N=C(c2ccc(OCCCO)cc2)O[C@H]1c1ccccc1
0.79

Field entry: COc1ccccc1CN1C(=O)c2ccccc2[C@@]2(Cc3ccccc3N(CC(F)(F)F)C2=O)[C@@H]1c1ccc(CO)cc1
0.331

Field entry: O=C1C=C(c2ccccc2)C(=O)c2ccc([C@H]3Oc4ccccc4S(=O)(=O)N4CCC[C@@H]34)cc21
-0.388

Field entry: COc1ccc(CN(C2=CC[C@@]3(C(N)=O)C(=O)C(Cl)=C(Cl)C(=O)[C@@]3(C#N)C2)S(=O)(=O)c2ccc(Br)cc2)cc1
0.0331

Field entry: COc1ccc(C(O)C2C=CC3C(=O)N(c4ccccc4)C(=O)C3N2Nc2ccc([N+](=O)[O-])cc2)cc1 (centres undefined)
0.989

Field entry: COC(=O)Cn1c(C(=O)N(C)C)cc2c1C[C@H]1CN(C(=O)c3ccccc3)[C@@](Cc3ccc(F)cc3)(C(=O)OC)[C@@H]21
0.136

Field entry: [N-]=[N+]=NCc1ccccc1[C@@H]1OC(c2ccc(OCCCO)cc2)=N[C@]1(CCS(=O)(=O)c1ccccc1)C(=O)NCC(O)CO (some centres undefined)
1.18

Field entry: COCCOC(=O)N1C(=O)[C@@]2(c3cc(C#CC4=CCCCC4)ccc31)[C@H](C(=O)N1CCCCCCC1)[C@H]1C(=O)O[C@H](c3ccccc3)[C@H](c3ccccc3)N1[C@@H]2c1ccc(O)cc1
0.622

Field entry: CCCCC=C[C@@H](NC(=O)c1ccc(-c2ccccc2)cc1)c1ccccc1
0.933

Field entry: COC(=O)[C@@]1(Cc2ccc(F)cc2)[C@H]2c3cc(C(=O)N(C)C)n(Cc4cc(F)cc5c4OCOC5)c3C[C@H]2CN1C(=O)c1ccccc1
1.04

Field entry: CN(C)C(=O)[C@@]1(Cc2ccccc2CN=[N+]=[N-])N=C(c2ccc(OCCCO)cc2)O[C@H]1c1ccccc1CN=[N+]=[N-]
1.07

Field entry: C[C@@H]1ON(c2ccc(C(=O)OC(C)(C)C)cc2)[C@H](c2ccc(O)cc2)[C@H]1C(=O)N1C(=O)OC[C@H]1Cc1ccccc1
1.03

Field entry: C=CCC(OC(C)=O)[C@@H]1[C@@H](N(Cc2cc3ccccc3o2)C(=O)c2ccc(C)cc2)c2cc(OCCCO)ccc2N1C(=O)Cc1ccc(OC)cc1 (some centres undefined)
0.217

Field entry: N#Cc1ccc(C(O)C2C=CC3C(=O)N(c4ccccc4)C(=O)C3N2Nc2ccccc2)cc1 (centres undefined)
0.73

Field entry: CCCC[C@@H](O)C1=C(COc2ccccc2)C[C@H]2C(=O)N(C)C(=O)[C@H]2[C@H]1CO
-0.425

Field entry: O=C(NCCCCCNC(=O)/C(Cc1ccccc1)=N/O)OCc1ccccc1
-0.485

Field entry: COc1ccc(CCNC(=O)[C@@H]2c3ccccc3C(=O)N(Cc3cc(C(F)(F)F)cc(C(F)(F)F)c3)[C@H]2c2ccc(CO)cc2)cc1
0.425

Field entry: COc1cc(OC)c(C(O)C2C=CC3C(=O)N(C)C(=O)C3N2NC(=O)OC(C)(C)C)cc1Br (centres undefined)
1.09

Field entry: COc1ccc([Si](C)(C)[C@@H]2[C@@H](CC(=O)N(CCO)Cc3ccccc3)O[C@]3(C(=O)N(Cc4cccc(N5C(=O)c6cccc7cccc5c67)c4)c4ccccc43)[C@H]2C)cc1
1.04

Field entry: O=C1N(Cc2ccccc2)c2ccccc2[C@@H]2OC(c3ccc(OCCCO)cc3)=N[C@]12Cc1ccccc1
1.11

Field entry: Cc1cc(C)cc(N2C(=O)CSC2c2cccc([N+](=O)[O-])c2)c1 (centres undefined)
1.19
